The measurements presented in this section are drawn from PubChem BioAssay (NCI).

System: LOX IMVI melanoma
Experiment: NCI-60 one-dose screen, 48 h
Settings: 10 µM
About 83,000 compounds went through this panel and 20% of them were active in at least one assay; those are over-represented in the sample as a whole. The source made the active and inactive calls. Rule for the calls: active = growth percent below 10; inactive = the rest.
In this exercise, the only acceptable responses are True (active), False (inactive)

Solved entries:
{"compound": "O=C(CCCSc1nc(-c2ccc(Cl)cc2)cc(-c2ccc(Cl)cc2)n1)NO", "group": "True"}
{"compound": "O=C1NC(=O)c2c(CCCSc3nc4ccccc4c(=O)n3CCc3ccccc3)cccc21", "group": "False"}
{"compound": "Cc1c[nH]c(=O)n(Cc2nnc(CCC(=O)c3nc4ccccc4[nH]3)o2)c1=O", "group": "False"}
{"compound": "COc1ccc(-c2n[nH]nc2-c2cc(OC)c3c(c2OC)OCO3)cc1", "group": "False"}
{"compound": "CC(=O)Nc1ccc(S(=O)(=O)c2ccnc3cc(Cl)ccc23)cc1", "group": "False"}

Which outcome did this test record for the compound CCOC(=O)c1cc(C(=O)c2ccc(Cl)cc2)n2ccc(-c3cc[n+](CC(=O)c4ccc(OC)cc4)cc3)cc12 ? False

Which outcome did this test record for the compound N#Cc1cnn(C(=O)c2nn(-c3ccc(Cl)cc3)cc2O)c1N ? True

Which outcome did this test record for the compound O=C(CCC(C(=O)c1ccccc1)c1ccccc1)c1ccccc1 (stereo not given) ? False

Which outcome did this test record for the compound NC(=O)c1cccc(-n2ccc3cc(NC(=O)Nc4ccc(Cl)c(C(F)(F)F)c4)ccc32)n1 ? False

Which outcome did this test record for the compound Cc1cn(-c2cc(F)cc(NC(=O)c3ccc(C)c(Nc4nccc(-c5cccnc5)n4)c3)c2)cn1 ? False

###

Test system: HOP-92 NSCLC
Test: NCI-60 one-dose screen, 48 h
Conditions: 10 µM
Compounds without any hit were thinned out: in the full panel of roughly 83,000, 20% have a hit. Activity calls are given as the source filed them. How the source made its calls: active means growth percent below 10; inactive means the rest.
In this exercise, the only acceptable responses are active, inactive

Solved entries:
{"compound": "CC[C@@H](C(=O)[C@@H](C)[C@@H](O)[C@H](C)[C@@H]1O[C@@H]([C@@H](CC)C(=O)N(CC)CC)CC[C@@H]1C)C1O[C@]2(C=CC(=O)[C@]3(CC[C@@](C)([C@H]4CC[C@](O)(CC)[C@H](C)O4)O3)O2)[C@H](C)C[C@@H]1C (some centres undefined)", "system_name": "HOP-92 NSCLC", "group": "active"}
{"compound": "COc1cccc(C2C(C#N)=C(N)Oc3cc(N)ccc32)c1 (centres undefined)", "system_name": "HOP-92 NSCLC", "group": "inactive"}
{"compound": "CN1CCN(CCCn2c(=O)c3sc4ncccc4c3n3nnc(-c4ccccc4)c23)CC1", "system_name": "HOP-92 NSCLC", "group": "inactive"}
{"compound": "CCCCN(CCCC)C(=O)[C@H](CC)[C@@H]1CC[C@@H](C)[C@@H]([C@H](C)[C@@H](O)[C@@H](C)C(=O)[C@H](CC)C2O[C@]3(C=CC(=O)[C@]4(CC[C@@](C)([C@H]5CC[C@](O)(CC)[C@H](C)O5)O4)O3)[C@H](C)C[C@@H]2C)O1 (some centres undefined)", "system_name": "HOP-92 NSCLC", "group": "active"}
{"compound": "CN(C)CCCOc1ccc(NC2=C(Cl)C(=O)C(Nc3ccc(OCCCN(C)C)cc3)=C(Cl)C2=O)cc1", "system_name": "HOP-92 NSCLC", "group": "active"}

Which outcome did this test record for the compound C/C(=N\O)c1ccc(NC(=O)CSc2nnc(-c3ccccc3)n2-c2ccccc2)cc1 ? inactive

Which outcome did this test record for the compound CC(=O)Oc1cc(OC(C)=O)c2ccccc2c1OC(C)=O ? inactive
